# ASSAY PROCEDURE: Solubility of the compound in water
# Format: physicochemical
MEASURED METRIC: solubility

>>> reported_result("C=CS(=O)(=O)CCC(C)=O [AUSTRASULFONE]")
"> 50 mg/mL"
